System: NCI 60 human cancer cell line panel
method: NCI 60 cell line screen (SRB), panel values
cond: Homo sapiens, 60 cell, read-out: Mean LC50
measurement kind: CC50

These solved cases illustrate the format of a correct answer.
C=C(C)C1C(=O)N(c2cc(OC)c(OC)c(OC)c2)C1c1ccc(OC)c(OP(=O)(O)O)c1 (centres unmarked) [15a]; 85.1 µM
C=C/C=C/C1C(=O)N(c2cc(OC)c(OC)c(OC)c2)C1c1ccc(OC)c(O)c1 (centres unmarked) [11p]; 91.2 µM
C=CC=CC1C(=O)N(c2cc(OC)c(OC)c(OC)c2)C1c1ccc(OC)cc1 (centres unmarked) [11h]; 77.6 µM
C=CCC1C(=O)N(c2cc(OC)c(OC)c(OC)c2)C1c1ccc(OC)c(O)c1 (centres unmarked) [10p]; 93.3 µM
C=CCC1C(=O)N(c2cc(OC)c(OC)c(OC)c2)C1c1ccc(OC)cc1 (centres unmarked) [10h]; 81.3 µM

In: So what does the record say about CC50 for COc1ccc(C2C(C(C)C)C(=O)N2c2cc(OC)c(OC)c(OC)c2)cc1OP(=O)(O)O (centres unmarked) [15b] ?
Out: 93.3 µM

In: Recorded CC50 for C=C(C)C1C(=O)N(c2cc(OC)c(OC)c(OC)c2)C1c1ccc(OC)c(O)c1 (centres unmarked) [9q] , please?
Out: 81.3 µM

In: For C=C/C=C/C1C(=O)N(c2cc(OC)c(OC)c(OC)c2)C1c1ccc(OC)c(N)c1 (centres unmarked) [11r] , what is its reported CC50?
Out: 77.6 µM

###

Test system: NCI 60 human cancer cell line panel
method: NCI 60 cell line screen (SRB), panel values
cond: Homo sapiens, 60 cell, read-out: Mean GI50, mean over all NCI 60 cell lines
Entries annotated with measured GI50
Number only, in nM; omit the unit.

C=C/C=C/C1C(=O)N(c2cc(OC)c(OC)c(OC)c2)C1c1ccc(OC)c(O)c1 (stereo not drawn) [11p]; 288
COc1ccc(C2C(C(C)C)C(=O)N2c2cc(OC)c(OC)c(OC)c2)cc1OP(=O)(O)O (stereo not drawn) [15b]; 525
COc1ccc(/C=C\c2cc(OC)c(OC)c(OC)c2)cc1O [CA-4, Combretastatin A-4, reference compound]; 99.3

Now consider a different molecule.
In: Record request: GI50 value, item C=C(C)C1C(=O)N(c2cc(OC)c(OC)c(OC)c2)C1c1ccc(OC)c(OP(=O)(O)O)c1 (stereo not drawn) [15a]
Out: 138

###

method: HPLC stability study in plasma
Type: in vitro ADME, human
cond: buffered plasma (plasma:buffer 1:9); human blood plasma; read-out: half-life (t½)
Listed below: half-life at 41.3 µg/mL values for each entry.

C=C(C)C1C(=O)N(c2cc(OC)c(OC)c(OC)c2)C1c1ccc(OC)c(OP(=O)(O)O)c1 (centres unmarked) [15a]; > 1440 min

Turning now to a further compound:
In: Would you mind telling me what half-life at 41.3 µg/mL value was observed for C=C(C)C1C(=O)N(c2cc(OC)c(OC)c(OC)c2)C1c1ccc(OC)c(O)c1 (centres unmarked) [9q] ?
Out: > 1440 min

###

Test system: SR
method: NCI-60 SRB screen, leukemia
Type: cell-based, human
cond: Homo sapiens, five dose 0.01–100 µM, 48 h, read-out: GI50
Rule: GI50 below 0.04 µM gives Satisfied, anything at or above gives Not satisfied.

C=C(C)C1C(=O)N(c2cc(OC)c(OC)c(OC)c2)C1c1ccc(OC)c(O)c1 (stereo not drawn); Satisfied
COc1ccc(C2C(C(C)C)C(=O)N2c2cc(OC)c(OC)c(OC)c2)cc1OP(=O)(O)O (stereo not drawn) [15b]; Not satisfied
C=C(C)C1C(=O)N(c2cc(OC)c(OC)c(OC)c2)C1c1ccc(OC)cc1 (stereo not drawn); Satisfied

In: Is GI50 of C=C(C)C1C(=O)N(c2cc(OC)c(OC)c(OC)c2)C1c1ccc(OC)c(OP(=O)(O)O)c1 (stereo not drawn) [15a] strictly below 0.04 µM?
Out: Not satisfied

In: Answer whether the molecule C=CCC1C(=O)N(c2cc(OC)c(OC)c(OC)c2)C1c1ccc(OC)c(O)c1 (stereo not drawn) [10p] has GI50 strictly less than 0.04 µM
Out: Satisfied

In: Determine whether this molecule shows GI50 lower than 0.04 µM (ties excluded): C=C(C)C1C(=O)N(c2cc(OC)c(OC)c(OC)c2)C1c1ccc(OC)c(N)c1 (stereo not drawn)
Out: Satisfied
